# assayedTarget: 5-LO (Homo sapiens, UniProt P09917)
# Construct: incubating a test compound with heparinised human blood, prior to challenge with the calcium ionophore A23187
# Sequence (P09917 whole entry): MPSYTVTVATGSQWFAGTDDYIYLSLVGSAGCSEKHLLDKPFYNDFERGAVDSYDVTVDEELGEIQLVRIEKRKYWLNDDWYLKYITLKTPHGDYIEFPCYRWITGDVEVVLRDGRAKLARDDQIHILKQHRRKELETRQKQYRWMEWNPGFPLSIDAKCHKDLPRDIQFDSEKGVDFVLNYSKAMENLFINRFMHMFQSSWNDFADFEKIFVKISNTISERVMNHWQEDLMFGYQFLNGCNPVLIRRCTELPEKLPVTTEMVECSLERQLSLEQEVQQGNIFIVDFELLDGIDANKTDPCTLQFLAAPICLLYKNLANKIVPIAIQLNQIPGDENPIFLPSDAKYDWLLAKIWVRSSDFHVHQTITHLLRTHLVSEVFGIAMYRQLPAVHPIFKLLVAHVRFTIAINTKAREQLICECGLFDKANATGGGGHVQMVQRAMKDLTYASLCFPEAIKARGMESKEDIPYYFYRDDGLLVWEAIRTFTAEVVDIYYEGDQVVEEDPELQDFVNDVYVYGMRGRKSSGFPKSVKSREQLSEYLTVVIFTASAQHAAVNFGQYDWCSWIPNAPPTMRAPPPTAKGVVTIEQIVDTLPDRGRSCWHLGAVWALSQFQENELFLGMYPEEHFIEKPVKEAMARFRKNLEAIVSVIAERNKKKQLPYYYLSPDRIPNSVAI
# assayName: test a) in vitro heparinised human blood, calcium ionophore A23187 challenge, LTB4 radioimmunoassay
readoutType: pIC50
Note on pIC50: it is the negative log10 of concentration, concentration in mol/L.

Ask: Annotate the molecule COC1(c2ccc3c(c2)OC(c2ccc4c(ccc(=O)n4C)c2)O3)CCOCC1 (stereo not shown) with its measured pIC50.
Result: 6.42

Cited source for all entries: patent US5232930A
